tgt: Tissue alpha-L-fucosidase (Bos taurus)
Sequence (Q2KIM0 whole entry): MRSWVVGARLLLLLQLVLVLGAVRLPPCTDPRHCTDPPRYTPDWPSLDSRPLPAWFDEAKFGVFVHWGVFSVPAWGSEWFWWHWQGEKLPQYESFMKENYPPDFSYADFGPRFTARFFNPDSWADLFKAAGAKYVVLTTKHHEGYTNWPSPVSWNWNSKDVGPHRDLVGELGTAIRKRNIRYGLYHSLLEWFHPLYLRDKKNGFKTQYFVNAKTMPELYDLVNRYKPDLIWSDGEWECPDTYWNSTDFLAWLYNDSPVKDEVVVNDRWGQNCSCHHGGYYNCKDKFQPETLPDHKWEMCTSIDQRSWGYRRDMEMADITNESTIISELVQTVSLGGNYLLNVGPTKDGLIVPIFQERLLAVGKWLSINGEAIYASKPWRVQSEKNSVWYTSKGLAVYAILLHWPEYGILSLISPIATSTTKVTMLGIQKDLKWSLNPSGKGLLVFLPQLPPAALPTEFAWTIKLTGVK
Endpoint summary: pKi, system: Tissue alpha-L-fucosidase (Bos taurus), multiple sources combined.
Numbers only, as −log10 of the molar value.

[[record]]
molecule = "C[C@H]1NC(O)[C@H](O)[C@@H](O)[C@H]1O (stereo not given in full)"
datavalue = 5.52


For every item below, please supply its pKi.
1. C[C@H]1N[C@@H](S(=O)(=O)O)[C@H](O)[C@@H](O)[C@H]1O
2. C[C@@H]1NC[C@@H](O)[C@H](O)C1(F)F
3. C[C@@H]1N=C[C@H](O)[C@@H]1O
4. OC[C@@H]1NC[C@@H](O)[C@H](O)[C@@H]1O
5. OC[C@@H]1NC[C@@H](O)[C@@H](O)[C@@H]1O
6. C[C@@H]1NC[C@@H](O)[C@H](O)[C@@H]1O
7. C[C@@H]1N[C@H](S(=O)(=O)O)[C@@H](O)[C@H](O)[C@@H]1O

Reply:
4.89
3.24
8.00
7.10
4.85
8.77
9.00

Provide each entry's pKi from the list below.
1. OC[C@H]1NC[C@@H](O)[C@@H](O)[C@@H]1O
2. C[C@H]1N[C@@H](CO)[C@H](O)[C@H]1O

Reply:
1. 5.33
2. 6.31
